# Tested on: Epithelial cells
# assay.method.text: Labelling of cells using compounds (staining/uptake)
# Type: cell-based
assay.metric: Labelling (staining/uptake) of cells

>  <molecule>
CCCCCCCCCCCCC/C=C/[C@@H](O)[C@H](COP(=O)([O-])OCC[N+](C)(C)C)NC(=O)CCCCc1ccc2n1[B-](F)(F)[N+]1=C(C)C=C(C)C1=C2 [Sphingomyelin]

>  <Labelling (staining/uptake) of cells>
✓

$$$$
>  <molecule>
CCCCCCCCCCCCCCCCCCCCCCN1/C(=C/C=C/c2oc3ccccc3[n+]2CCC)Oc2ccccc21.[I-] [PKH2]

>  <Labelling (staining/uptake) of cells>
✓ not all

$$$$
>  <molecule>
CCCCC/C=C\C/C=C\CCCCCCCCN1C(=CC=CC2=[N+](CCCCCCCC/C=C\C/C=C\CCCCC)c3ccccc3C2(C)C)C(C)(C)c2ccccc21.[O-][Cl+3]([O-])([O-])[O-] [Linol]

>  <Labelling (staining/uptake) of cells>
✓

$$$$
>  <molecule>
CCCCCCCCCCCCCCCCCCN1C(=CC=CC2=[N+](CCCCCCCCCCCCCCCCCC)c3ccccc3C2(C)C)C(C)(C)c2ccccc21.[O-][Cl+3]([O-])([O-])[O-]

>  <Labelling (staining/uptake) of cells>
✓

$$$$

Epithelial cells data for CCCCCCCCCCCCCCCCCCCCCC[N+]1=C(/C=C/C=C2/N(CCCCCCCCCCCCCC)c3ccccc3C2(C)C)C(C)(C)c2ccccc21.[I-] [PKH26] ; its Labelling (staining/uptake) of cells: ✓ not all
